test system: Blood; experiment: Antiinflammatory activity in human whole blood assessed as inhibition of TNF-alpha-induced IL-8 production after overnight incubation by ELISA relative to dexamethasone; format: functional
Quantity name: Imax
Write down the value, and be sure its unit follows.

Before answering, review these 2 worked examples.
CC(C)(C(=O)Nc1nncs1)[C@H]1c2ccccc2Oc2nc(-c3ccc(C(=O)N4CCC(F)(F)C4)c(F)c3)ccc21    67%
CC(C)(C(=O)Nc1nncs1)[C@H]1c2ccccc2Oc2nc(-c3ccc(C(=O)N4CCCCC4)c(F)c3)ccc21    45%

IN: What Imax value was documented for this molecule, C[C@]12C=CC(=O)C=C1CC[C@@H]1[C@@H]2[C@@H](O)C[C@@]2(C)[C@H]1CC[C@]2(O)C(=O)CO [PREDNISOLONE] ?
OUT: 94%

IN: Now the molecule `CCN(C)C(=O)c1ccc(-c2ccc3c(n2)Oc2ccccc2[C@@H]3C(C)(C)C(=O)Nc2nncs2)cc1F`
OUT: 76%

IN: Would you kindly repeat that for `CC(C)Oc1ccc(-c2ccc3c(n2)Oc2ccccc2[C@@H]3C(C)(C)C(=O)Nc2nncs2)cc1F` ?
OUT: 12%

IN: Ok, now `CNC(=O)c1ccc(-c2ccc3c(n2)Oc2ccccc2[C@@H]3C(C)(C)C(=O)Nc2nncs2)cc1F`
OUT: 15%

IN: `CC(C)(C(=O)Nc1nncs1)[C@H]1c2ccccc2Oc2nc(-c3ccc(C(=O)N4CCOCC4)c(F)c3)ccc21` , same question.
OUT: 84%

IN: // query: `CC(C)(C(=O)Nc1nncs1)[C@H]1c2ccccc2Oc2nc(-c3ccc(C(=O)N4CCCC4)c(F)c3)ccc21`
OUT: 61%

IN: Now give it for `CN(C)C(=O)c1ccc(-c2ccc3c(n2)Oc2ccccc2[C@H]3C(C)(C)C(=O)Nc2nncs2)cc1F` too.
OUT: 55%

IN: Another molecule to check: `CC(C)(C(=O)Nc1nncs1)[C@H]1c2ccccc2Oc2nc(-c3ccc(C(=O)N4CCC(F)(F)C4)c(Cl)c3)ccc21`
OUT: 59%

====

test: AUC in Sprague-Dawley rat at 50 mg/kg, po; format: ADME, organism-based; set-up: dose 50 mg/kg, route oral; conditions: plasma
Quantity name: AUC (ng·h/mL)
Report as a plain number; the unit ng·h/mL is understood.

CCN(C)C(=O)c1ccc(-c2ccc3c(n2)Oc2ccccc2[C@@H]3C(C)(C)C(=O)Nc2nncs2)cc1F    28100

Now turn to the next compound.
IN: State the recorded AUC for this entry: `CN(C)C(=O)c1ccc(-c2ccc3c(n2)Oc2ccccc2[C@H]3C(C)(C)C(=O)Nc2nncs2)cc1F`
OUT: 20200

====

Attribute: Imax
test system: Blood; test: Antiinflammatory activity in human whole blood assessed as inhibition of IL-1beta-induced IL-8 production after overnight incubation by ELISA relative to Dexamethasone; format: functional
# output: bare number, implied unit %

CC(C)Oc1ccc(-c2ccc3c(n2)Oc2ccccc2[C@@H]3C(C)(C)C(=O)Nc2nncs2)cc1F    7
C[C@]12C=CC(=O)C=C1CC[C@@H]1[C@@H]2[C@@H](O)C[C@@]2(C)[C@H]1CC[C@]2(O)C(=O)CO    94
CC(C)(C(=O)Nc1nncs1)[C@H]1c2ccccc2Oc2nc(-c3ccc(C(=O)N4CCC(F)(F)C4)c(F)c3)ccc21    81

IN: So what Imax did `CC(C)(C(=O)Nc1nncs1)[C@H]1c2ccccc2Oc2nc(-c3ccc(C(=O)N4CCCCC4)c(F)c3)ccc21` get with Blood?
OUT: 27

IN: Same question, `CN(C)C(=O)c1ccc(-c2ccc3c(n2)Oc2ccccc2[C@H]3C(C)(C)C(=O)Nc2nncs2)cc1F` this time
OUT: 70

IN: And what about the compound `CC(C)(C(=O)Nc1nncs1)[C@H]1c2ccccc2Oc2nc(-c3ccc(C(=O)N4CCOCC4)c(F)c3)ccc21` ?
OUT: 92

IN: Next compound up: `CC(C)(C(=O)Nc1nncs1)[C@H]1c2ccccc2Oc2nc(-c3ccc(C(=O)N4CCC(F)(F)C4)c(Cl)c3)ccc21`
OUT: 82
